EXPERIMENT SUMMARY: gradient 5% acetonitrile 3 min, to 50% in 2 min, to 85% in 15 min, held 3 min, 100 µL/min
CONDITIONS USED: column: Zorbax Extend-C18 2.1 x 50 mm; eluents: water / acetonitrile, 0.1% formic acid
Simple rule here: RP-LC retention time less than 800 s is true (1), otherwise false (0).

| MOLECULE | ASSIGNED LABEL |
| --- | --- |
| CCc1noc(-c2cnc3nc(C)ccc3c2Nc2ccc3c(c2)OCCO3)n1 | true (1) |
| O=C(NCc1cc(F)cc(F)c1)C1CCCN(c2nccnc2Sc2ccccc2)C1 (centres undefined) | false (0) |
| CC1(C(=O)NCc2ccccc2)CCCN(C(=O)Nc2ccc(Cl)cc2)C1 (centres undefined) | false (0) |
| CCOc1ccc(C(=O)Nc2cccn3nc(C(C)C)nc23)cc1 | false (0) |
| CC(C)Oc1ccc(-c2noc(CN3N=NC4C(=O)N(c5ccccc5)C(=O)C43)n2)cc1 (centres undefined) | false (0) |
| O=C(NCc1ccnc(N2CCSCC2)c1)Nc1ccccc1Cl | true (1) |
| Cc1noc(C)c1S(=O)(=O)N1CC(n2cc(C(=O)NCC3CC3)nn2)C1 | true (1) |
| CN(C)S(=O)(=O)c1ccc(NC(=O)N2CCCC(C(=O)Nc3ccc(F)cc3)C2)s1 (centres undefined) | false (0) |

-- ask I wonder whether CCOC(=O)C(C)c1c(C(=O)c2ccc(C)nc2)c2ccccc2n1C (centres undefined) has RP-LC retention time below 800 s. Can you tell?
-- reply false (0)

-- ask Bench note: check whether `CSc1ccccc1CN1CCC(CNC(=O)C(=O)NCc2cccs2)CC1` shows RP-LC retention time below 800 s
-- reply true (1)

-- ask Given `O=C(NCc1ccco1)C1CCN(c2nnc3ccc(C(F)(F)F)cn23)CC1` , is recorded RP-LC retention time strictly lower than 800 s?
-- reply true (1)

-- ask Is RP-LC retention time of `COc1ccc(-c2nc(-c3cn(Cc4cccc(F)c4)nn3)no2)cc1` strictly below 800 s?
-- reply false (0)

-- ask # TODO verify RP-LC retention time < 800 s strictly for this molecule: CN1CCc2nnc(C3CCN(C(=O)Nc4ccc(Cl)cc4C(F)(F)F)C3)n2CC1 (centres undefined)
-- reply true (1)

-- ask Problem: For the molecule `CC(C)NC(=O)N1CCN(Cc2nc3cccnc3n2-c2cccc(F)c2)CC1` , is RP-LC retention time under 800 s?
-- reply true (1)

-- ask Regarding `O=C(Nc1c(-c2ccc(F)cc2)nc2ccccn12)c1ccccc1F` , kindly confirm whether its RP-LC retention time is beneath 800 s.
-- reply true (1)

-- ask Please let me know if `CC(=O)Nc1ccc(Br)cc1C(=O)c1ccccc1` shows RP-LC retention time below 800 s.
-- reply false (0)

###

EXPERIMENT SUMMARY: gradient 5% acetonitrile 3 min, to 50% in 2 min, to 85% in 15 min, held 3 min, 100 µL/min
CONDITIONS USED: column: Zorbax Extend-C18 2.1 x 50 mm; eluents: water / acetonitrile, 0.1% formic acid
ASSAY READOUT: RP-LC retention time (s)
A number alone suffices; assume s.

Consider the worked cases shown below.
| MOLECULE | UNIT INFO | RP-LC retention time |
| --- | --- | --- |
| COc1ccc(C2Cn3nnc(-c4nc(-c5cccc(F)c5)no4)c3CO2)cc1 (stereo not given) | s | 1100 |
| CC(C)n1cnc2ccc(-c3noc(COc4ccc(F)cc4)n3)cc21 | s | 783 |
| Cc1ccc2c(c1)N(Cc1ccccc1)N=C(C(=O)N1CCCCC1)S2(=O)=O | s | 1010 |

RP-LC retention time recorded for this molecule, `Cn1c(C(=O)NC2CCCCCC2)cc2sc(Cl)cc21` , is 1200

Entry `O=C(CCC1CCN(c2cc(NC3CC3)ncn2)CC1)NCc1cccc(Cl)c1` — recorded RP-LC retention time = 680

RP-LC retention time reading for `CCc1ccc(S(=O)(=O)N2CCC3(CC2)NCCN=C3NCc2ccc(F)c(Cl)c2)cc1` : 831

Short answer for `Cc1ccc(C)c(NC(=O)Cn2cccc2-c2nnc(-c3ccccc3)o2)c1` : RP-LC retention time was 1020

Documented RP-LC retention time of CCCC(=O)N1CCC(C(=O)N2c3ccccc3CC2C)CC1 (stereo not given) : 794

`CCOc1ccc(S(=O)(=O)Nc2cc(-c3cn4ccccc4n3)ccc2C)cc1` has a reported RP-LC retention time of 687

RP-LC retention time in this record for `COC(=O)c1ccc(Cl)cc1NC(=O)COc1nc(C)nc2ccccc12` : 920

Kindly note the recorded RP-LC retention time for CCOC(=O)c1cc(S(=O)(=O)N2CCCC2C(=O)NCCC2=CCCCC2)cn1C (stereo not given) , which is 985

Lab book: RP-LC retention time of COc1ccc(-c2noc(C3CC(=O)N(c4ccc(OC)c(Cl)c4)C3)n2)cc1 (stereo not given) noted as 947

Query `c1csc(-c2nc(-c3ccnc(N4CCCC4)c3)no2)c1` yields RP-LC retention time of 665

For reference, reported RP-LC retention time for `O=S(=O)(Nc1ccc(F)cc1)c1cccnc1Nc1ccc(Br)cc1` stands at 1150

Notebook: O=C(C1CCCO1)N1CCN(c2nc3cccnc3n(Cc3ccccc3)c2=O)CC1 (stereo not given) , RP-LC retention time read as 856

For reference, reported RP-LC retention time for `O=C(C1CCN(c2nc3ccc(-c4cccc(F)c4)nc3s2)CC1)N1CCOCC1` stands at 892

Kindly note the recorded RP-LC retention time for COC(=O)c1cc(S(=O)(=O)N2CCCC2C(=O)Nc2cccc(C)n2)cn1C (stereo not given) , which is 773

For `Cc1ccc(C2=NC3(CCN(C(=O)Cc4cccs4)CC3)ON2)cc1` the molecule record lists RP-LC retention time as 829

Record summary for `Cc1ccc(Nc2nc3ccncc3n(C(C)C)c2=O)cc1Cl` : reported RP-LC retention time = 771

So for `CCC(=O)Nc1ccc(CCc2nc3ccc(C(=O)NCCC4=CCCCC4)cc3[nH]2)cc1` , the logged RP-LC retention time turned out to be 696

###

Items are presented alongside their recorded RP-LC retention time.
EXPERIMENT SUMMARY: gradient 5% acetonitrile 3 min, to 50% in 2 min, to 85% in 15 min, held 3 min, 100 µL/min
CONDITIONS USED: column: Zorbax Extend-C18 2.1 x 50 mm; eluents: water / acetonitrile, 0.1% formic acid
The reply should contain only the number, in s.

| MOLECULE | UNIT INFO | RP-LC retention time |
| --- | --- | --- |
| CN(C)C(=O)c1csc(S(=O)(=O)N2CCC(C(=O)NCc3ccc4c(c3)OCO4)CC2)c1 | s | 714 |
| COc1ccc(-n2ccn3cc(-c4ccc(Br)cc4)nc3c2=O)cc1 | s | 891 |
| COc1ccccc1CC(=O)N1CCCn2nc(-c3ccc(C)cc3)cc2C1 | s | 930 |

Looking up CCC(CC)NC(=O)C1Cn2cccc2C(=O)N1C (stereo not given) , I see its RP-LC retention time listed as 661

Please fill in: RP-LC retention time reported for `CC(C)CCn1c(SCc2cc(=O)n3ccccc3n2)nc2c(-c3ccccc3)cn(C)c2c1=O` = 1200

###

EXPERIMENT SUMMARY: gradient 5% acetonitrile 3 min, to 50% in 2 min, to 85% in 15 min, held 3 min, 100 µL/min
CONDITIONS USED: column: Zorbax Extend-C18 2.1 x 50 mm; eluents: water / acetonitrile, 0.1% formic acid
The entries below are paired with their reported RP-LC retention time.
The response must be a number in s with no trailing unit.

Worked set:
| MOLECULE | UNIT INFO | RP-LC retention time |
| --- | --- | --- |
| Cc1sc(NC(=O)C2CC2)nc1-c1ccc2c(c1)N(C)C(=O)CO2 | s | 811 |
| Cc1ccnc(OCC(=O)NCCNc2cc(-n3nc(C)cc3C)nc(C)n2)n1 | s | 596 |
| CCN(CC)c1ccc(-c2noc(CN3CCC4(CC3)OCCO4)n2)cn1 | s | 579 |
| CCC(CN1CCOCC1)NC(=O)c1c2c(nc3ccccc13)C(=O)N(C1CCCCC1)C2 (centres undefined) | s | 610 |
| COc1ccc(-c2nc3ncccn3c2Nc2cc(C)cc(C)c2)cc1 | s | 784 |
| CCc1ccc(NC(=O)C2(C)Oc3cccnc3N(CC)C2=O)cc1 (centres undefined) | s | 982 |
| O=C(NCCc1nc(-c2ccc3c(c2)OCO3)n[nH]1)c1ccc(F)cc1Cl | s | 692 |
| Cc1ccccc1C(=O)N1CCC2(C1)C(=O)N(C)c1ccccc12 (centres undefined) | s | 767 |

// sample Cc1ccc(-n2nc(C)c3sc(N4CCCC(C(=O)NCc5ccc(N(C)C)cc5)C4)nc32)cc1 (centres undefined) , its RP-LC retention time was 867

Values compiled from the METLIN SMRT retention time set (Domingo-Almenara et al. 2019).
